target: mGluR2 receptor (metabotropic glutamate receptor 2) (Homo sapiens, UniProt Q14416); construct: expressed in transfected cells; assay: mGluR2 Potentiator Screen, FLIPR, EC10-EC20 glutamate challenge; assay type: cell-based; conditions: read-out: EC50
Sequence (Q14416 19-872, species assumed): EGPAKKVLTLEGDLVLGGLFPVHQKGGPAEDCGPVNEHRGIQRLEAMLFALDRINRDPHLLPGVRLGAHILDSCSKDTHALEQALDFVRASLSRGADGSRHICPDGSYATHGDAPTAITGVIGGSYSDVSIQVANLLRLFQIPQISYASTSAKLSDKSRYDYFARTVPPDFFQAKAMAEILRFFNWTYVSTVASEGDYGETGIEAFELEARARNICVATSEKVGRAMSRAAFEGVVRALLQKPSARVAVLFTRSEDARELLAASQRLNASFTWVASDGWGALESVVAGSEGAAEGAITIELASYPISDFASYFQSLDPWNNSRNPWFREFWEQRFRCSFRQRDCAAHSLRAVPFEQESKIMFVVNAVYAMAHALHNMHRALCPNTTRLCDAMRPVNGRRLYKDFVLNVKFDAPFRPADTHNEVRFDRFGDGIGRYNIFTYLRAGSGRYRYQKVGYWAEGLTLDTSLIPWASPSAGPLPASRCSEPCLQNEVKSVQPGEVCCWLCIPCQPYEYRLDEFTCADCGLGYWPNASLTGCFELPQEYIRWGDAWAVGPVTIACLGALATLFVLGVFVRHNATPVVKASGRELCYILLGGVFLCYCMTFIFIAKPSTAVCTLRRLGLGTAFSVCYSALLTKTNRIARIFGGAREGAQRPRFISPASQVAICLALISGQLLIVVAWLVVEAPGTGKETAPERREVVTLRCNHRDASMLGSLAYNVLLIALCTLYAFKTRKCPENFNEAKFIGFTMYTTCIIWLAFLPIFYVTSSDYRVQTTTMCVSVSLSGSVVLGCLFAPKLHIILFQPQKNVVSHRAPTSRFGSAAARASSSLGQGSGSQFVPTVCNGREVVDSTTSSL
reported_metric: EC50 (µM)
Please respond with the number in µM and leave the unit unwritten.

>  <compound>
CCCCN1CC2(CCN(Cc3nc4ccccc4n3C)CC2)c2cc(Cl)ccc21

>  <EC50 [µM]>
2.81

$$$$
>  <compound>
COc1cc(C(F)(F)F)ccc1C1CCN(Cc2nc3ccccc3n2C2CC2)CC1

>  <EC50 [µM]>
0.94

$$$$
>  <compound>
Cn1c(CN2CCC(c3ccc(F)cc3F)CC2)nc2cc(C#N)ccc21

>  <EC50 [µM]>
0.14

$$$$

Lookup: Param item = "Cn1c(CN2CCC3(CC2)CN(C(=O)c2cccs2)c2ccccc23)nc2ccccc21" ; retrieve measured EC50.
Found: 3.11

Lookup: Input "COc1ccc(C(F)(F)F)cc1C1CCN(Cc2nc3cc(F)ccc3n2C)CC1"
Found: 0.853

Lookup: Input "COC(=O)CCC(=O)N1CC2(CCN(Cc3nc4ccccc4n3C)CC2)c2cc(Cl)ccc21"
Found: 3.23

Lookup: Input "Cn1c(CN2CCC3(CC2)CN(C(=O)COCc2ccccc2)c2ccccc23)nc2ccccc21"
Found: 0.589

Lookup: Input "Cc1ccc2c(c1)C1(CCN(Cc3nc4ccccc4n3C)CC1)CN2C(=O)c1cccnc1"
Found: 3.61

Lookup: Input "CC(C)C(=O)N1CC2(CCN(Cc3nc4ccccc4n3C)CC2)c2cc(F)ccc21"
Found: 3.31

Provenance of the data: patent US20080280933A1
